- assay comment: Stability in mouse plasma (accelerated, freeze-thaw, frozen PK samples)
- Format: in vitro ADME
- applied conditions: mouse plasma, 24 hours 4°C
attribute measured: %-ACC (percent mean accuracy vs nominal) (%)

compound | %-ACC (percent mean accuracy vs nominal) [%]
Nc1ccn([C@@H]2O[C@H](CO)[C@@H](O)C2(F)F)c(=O)n1 | 87.9

P = O=c1ccn([C@@H]2O[C@H](COP(=O)(O)O)[C@@H](O)C2(F)F)c(=O)[nH]1
Q = CCCCCN(C)CCC(O)(P(=O)(O)O)P(=O)(O)OP(=O)(O)OC[C@H]1O[C@@H](n2ccc(N)nc2=O)C(F)(F)[C@@H]1O (stereo partly drawn)
(Q) For this pair, P and Q , which shows a numerically higher %-ACC (percent mean accuracy vs nominal)? Response format: the label of the selected entry.
(A) P
